Data export: Ki values recorded with Gamma-aminobutyric acid receptor subunit alpha-4 (Homo sapiens, UniProt P48169).
Sequence (P48169 whole entry): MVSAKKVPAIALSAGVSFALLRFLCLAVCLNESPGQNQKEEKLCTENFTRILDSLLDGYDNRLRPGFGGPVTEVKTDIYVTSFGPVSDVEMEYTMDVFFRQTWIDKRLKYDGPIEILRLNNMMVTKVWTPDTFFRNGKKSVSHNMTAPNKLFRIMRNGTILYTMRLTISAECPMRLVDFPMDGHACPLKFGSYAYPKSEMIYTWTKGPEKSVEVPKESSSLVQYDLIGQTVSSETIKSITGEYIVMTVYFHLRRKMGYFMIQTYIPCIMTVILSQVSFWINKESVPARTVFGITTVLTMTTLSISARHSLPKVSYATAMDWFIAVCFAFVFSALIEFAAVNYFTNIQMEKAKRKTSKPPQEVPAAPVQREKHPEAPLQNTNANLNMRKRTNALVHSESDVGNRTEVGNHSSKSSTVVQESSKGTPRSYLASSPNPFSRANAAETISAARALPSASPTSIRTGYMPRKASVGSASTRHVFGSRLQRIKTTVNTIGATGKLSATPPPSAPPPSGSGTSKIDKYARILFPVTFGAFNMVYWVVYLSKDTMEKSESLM
value-type: Ki (µM)

> print(dat)
                               smiles.input  value.type  units  qual  data.value
1           CNC(=O)c1cc2c(cn1)[nH]c1ccccc12          Ki     µM     >          10
2  COCc1c(C(=O)OC(C)C)ncc2[nH]c3ccc(OCc4ccccc4)cc3c12          Ki     µM     =        1.06
3           COC(=O)c1cc2c(cn1)[nH]c1ccccc12          Ki     µM     =        0.64
4   Cc1ccc(-c2nc3ccc(C)cn3c2CC(=O)N(C)C)cc1          Ki     µM     >          10
5         CCCOC(=O)c1cc2c(cn1)[nH]c1ccccc12          Ki     µM     =       0.922
6   COc1ccc(-n2[nH]c3c(cnc4ccccc43)c2=O)cc1          Ki     µM     =       0.004
7     O=c1c2cnc3ccccc3c2[nH]n1-c1ccc(Cl)cc1          Ki     µM     =       0.059
8         O=c1c2cnc3ccccc3c2[nH]n1-c1ccccc1          Ki     µM     =      0.0119
9       Cc1nnc2ccc(-c3cccc(C(F)(F)F)c3)nn12          Ki     µM     >          10

----------
Biological target: Gamma-aminobutyric acid receptor subunit alpha-1 (Homo sapiens, UniProt P14867)
Sequence (P14867 whole entry): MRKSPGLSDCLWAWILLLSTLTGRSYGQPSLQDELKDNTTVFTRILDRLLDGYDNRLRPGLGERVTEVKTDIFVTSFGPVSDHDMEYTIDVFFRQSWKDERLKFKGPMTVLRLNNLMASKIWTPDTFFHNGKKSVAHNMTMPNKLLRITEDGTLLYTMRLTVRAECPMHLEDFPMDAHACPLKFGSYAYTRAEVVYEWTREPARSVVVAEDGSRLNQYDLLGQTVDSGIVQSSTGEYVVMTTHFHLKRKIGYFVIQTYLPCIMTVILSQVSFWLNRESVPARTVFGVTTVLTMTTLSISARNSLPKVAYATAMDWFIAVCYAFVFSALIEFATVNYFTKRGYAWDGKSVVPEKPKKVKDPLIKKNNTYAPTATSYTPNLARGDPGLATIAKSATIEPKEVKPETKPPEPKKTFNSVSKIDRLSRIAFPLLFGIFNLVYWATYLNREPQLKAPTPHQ
Entries whose Ki is below 7 nM take true; entries at or above 7 nM take false.

> print(dat)
                                    compound    cat
 1           CNC(=O)c1cc2c(cn1)[nH]c1ccccc12  false
 2  COc1ccc(-n2[nH]c3c4c(ncc3c2=O)CCCCC4)cc1   true
 3   COc1ccc(-n2[nH]c3c(cnc4ccccc43)c2=O)cc1   true
 4  CCOC(=O)c1ncn2c1CN(C)C(=O)c1cc(N=[N+]=[N-])ccc1-2  false
 5          CCOC(=O)c1cc2c(cn1)[nH]c1ccccc12   true
 6  CC(C)(C)OC(=O)c1ncn2c1C1CCCN1C(=O)c1c(Br)cccc1-2 (configuration not stated)   true
 7         O=c1c2cnc3ccccc3c2[nH]n1-c1ccccc1   true
 8           COC(=O)c1cc2c(cn1)[nH]c1ccccc12   true
 9  CCc1c(C(=O)OC)ncc2[nH]c3cc(OC)c(OC)cc3c12  false
10     O=c1c2cnc3ccccc3c2[nH]n1-c1ccc(Cl)cc1   true
11       Cc1nnc2ccc(-c3cccc(C(F)(F)F)c3)nn12  false
